experiment: Cytotoxicity, MTS assay, normal kidney cells; conditions: pig, LLC-PK1 kidney cells
experimental endpoint: viability at 24 h, 5 µM

Give reported viability at 24 h, 5 µM value for N=C(N)NCCC[C@@H]1NC(=O)[C@H](CCCCNC(=O)[C@H](Cc2c[nH]c3ccccc23)NC(=O)[C@H](Cc2c[nH]c3ccccc23)NC(=O)[C@H](Cc2c[nH]c3ccccc23)NC(=O)[C@H](Cc2c[nH]c3ccccc23)NC(=O)[C@H](Cc2c[nH]c3ccccc23)NC(=O)[C@H](Cc2c[nH]c3ccccc23)NC(=O)[C@H](Cc2c[nH]c3ccccc23)NC(=O)CCN)NC(=O)[C@H](CCCNC(=N)N)NC(=O)[C@H](CCCNC(=N)N)NC(=O)[C@H](CCCNC(=N)N)NC(=O)[C@H](CCCNC(=N)N)NC1=O [[R5K]W7A]
94%
